System: MOLT-4 leukemia
Test summary: NCI-60 one-dose screen, 48 h (100 = growth as untreated, 0 = no growth, -100 = all killed)
Assay conditions: 10 µM
This is part of a sample that, as a whole, favours compounds with a hit. Of some 83,000 tested, about 20% had one in any assay.
Assign labels as follows, please: TRUE for growth below 40%; FALSE for growth equal to or exceeding 40%.

Please check: growth for Cc1ccc(C[As+](c2ccccc2)(c2ccccc2)c2ccccc2)cc1 , strictly under 40% or not?
TRUE

Please check: growth for O=C(NCc1ccc([N+](=O)[O-])cc1)Nc1ccc(S(=O)(=O)F)cc1 , strictly under 40% or not?
FALSE

Please check: growth for CCCCn1cc(C(=O)/C(C#N)=C/c2cc3ccccc3nc2Cl)c2cc(OC)ccc21 , strictly under 40% or not?
FALSE

Please check: growth for C[CH2][Pb]([CH2]C)([CH2]C)[O]C(=O)COc1ccccc1 , strictly under 40% or not?
TRUE

Please check: growth for O=S(=O)(c1ccc(Cl)cc1)C(Cl)(Cl)Cl , strictly under 40% or not?
TRUE

Please check: growth for O=C1C=CC(=O)C2C1C1(Cl)C(Cl)=C(Cl)C2(Cl)C1(Cl)Cl (configuration not stated) , strictly under 40% or not?
FALSE

Please check: growth for O=C(N/N=C/c1ccc([N+](=O)[O-])o1)c1cc([N+](=O)[O-])cc([N+](=O)[O-])c1O , strictly under 40% or not?
FALSE

Please check: growth for O=C(CCF)c1ccc(O)cc1 , strictly under 40% or not?
FALSE

Please check: growth for N#[N+]c1cnc([O-])[nH]c1=O , strictly under 40% or not?
FALSE

Please check: growth for COc1cc(CNCCc2ccc(Cl)cc2)cc(OC)c1O , strictly under 40% or not?
TRUE

Please check: growth for NC(Cc1ccc2c(c1)OCO2)c1ccc2c(c1)OCO2 (configuration not stated) , strictly under 40% or not?
FALSE

Please check: growth for CCC(C)[C@H]1O[C@]2(C=C[C@@H]1C)C[C@@H]1C[C@@H](C/C=C(\C)[C@@H](OC3C[C@H](OC)C(O[C@H]4C[C@H](OC)[C@@H](O)[C@H](C)O4)[C@H](C)O3)[C@@H](C)/C=C/C=C3\CO[C@@H]4[C@H](O)C(C)=C[C@@H](C(=O)O1)[C@]34O)O2 (some centres not stated) , strictly under 40% or not?
TRUE

Please check: growth for N#[N+]c1nc2nc(N)[nH]c(=O)c2[nH]1 , strictly under 40% or not?
FALSE

Please check: growth for CC(C)OC(=S)[S-].[Au+].c1ccc([PH+](c2ccccc2)c2ccccc2)cc1 , strictly under 40% or not?
TRUE

Please check: growth for CC(C)(NC(=O)c1nn(CCCCCF)c2ccccc12)c1ccccc1 , strictly under 40% or not?
FALSE

Please check: growth for CCCCN(CCCC)CC(O)c1ccccc1 (configuration not stated) , strictly under 40% or not?
FALSE

Please check: growth for CC1(C)N=C(N)N=C(N)N1c1ccc(OCCCCNC(=O)Nc2cccc(S(=O)(=O)F)c2)c(Cl)c1 , strictly under 40% or not?
TRUE

Please check: growth for c1ccc([As]=[As]c2ccccc2)cc1 (configuration not stated) , strictly under 40% or not?
TRUE

Please check: growth for CC1(C)N=C(N)N=C(N)N1c1ccc(CCC(=O)Nc2cccc(S(=O)(=O)F)c2)cc1 , strictly under 40% or not?
FALSE

Please check: growth for N#C[Se]CCCNS(=O)(=O)C1CC2C=CC1C2 (configuration not stated) , strictly under 40% or not?
TRUE

Please check: growth for C/C1=C/C(=O)O[C@@H]2C[C@@H](CC[C@H](C)/C=C\C=C\CC1)O[C@@](OCCc1ccccc1)([C@@H]1CSC(=O)N1)C2 , strictly under 40% or not?
FALSE

Please check: growth for O=C(c1cccs1)C1NO[N+]([O-])=C1c1cccs1 (configuration not stated) , strictly under 40% or not?
TRUE

Please check: growth for Cc1cc(N(CCCl)CCCl)ccc1C=Nc1ccc2ccccc2c1 , strictly under 40% or not?
FALSE

Please check: growth for COC1=CC(=O)OC(CCc2ccc3c(c2)OCO3)C1 (configuration not stated) , strictly under 40% or not?
FALSE

Please check: growth for CC1CC=CCC12C(=O)NC(=S)NC2=O (configuration not stated) , strictly under 40% or not?
FALSE

Please check: growth for CN1CC2CCC(C1)C2=O , strictly under 40% or not?
FALSE

Please check: growth for CC[C@]12C=CCN3CC[C@@]4(c5ccc(OC)cc5N(C)[C@H]4[C@@](O)(C(=O)OC)[C@@H]1OC(=O)CCCN1CCN(CCCC(=O)O[C@@H]4[C@]5(CC)C=CCN6CC[C@@]7(c8ccc(OC)cc8N(C)[C@H]7[C@@]4(O)C(=O)OC)[C@@H]65)CC1)[C@@H]32 , strictly under 40% or not?
TRUE
